The following variants are shown together with reported self-cleavage values.
B1: Hairpin Ribozyme (parent)
chain: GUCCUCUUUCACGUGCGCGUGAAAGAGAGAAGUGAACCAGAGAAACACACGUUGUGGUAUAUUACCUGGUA

- Variants of: B1
- method-summary: self-cleavage, relative activity (ratio to wild type); higher = more cleavage; co-transcriptional
endpoint-name: self-cleavage

variant-description: G17A C38U
endpoint-name: self-cleavage
measurement: 0.512
//
variant-description: G1A A11U
endpoint-name: self-cleavage
measurement: 0.302
//
variant-description: A49C A64G
endpoint-name: self-cleavage
measurement: 0.0856
//
variant-description: A22U A61U
endpoint-name: self-cleavage
measurement: 0.198
//
variant-description: U14C U67G
endpoint-name: self-cleavage
measurement: 0.344
//
variant-description: A35U A39C
endpoint-name: self-cleavage
measurement: 0.208
//
variant-description: A30U U53G
endpoint-name: self-cleavage
measurement: 0.277
//
variant-description: G51U U53A
endpoint-name: self-cleavage
measurement: 1.07
//
variant-description: C10U G57U
endpoint-name: self-cleavage
measurement: 0.239
//
variant-description: C10U U62G
endpoint-name: self-cleavage
measurement: 0.0799
//
variant-description: G27U G54U
endpoint-name: self-cleavage
measurement: 0.208
//
variant-description: A23U A24U
endpoint-name: self-cleavage
measurement: 0.737
//
variant-description: C10G G19A
endpoint-name: self-cleavage
measurement: 0.64
//
variant-description: G56A U60G
endpoint-name: self-cleavage
measurement: 0.186
//
variant-description: G1U C48U
endpoint-name: self-cleavage
measurement: 0.155
//
variant-description: U9A U70C
endpoint-name: self-cleavage
measurement: 0.719
//
variant-description: G29C C38G
endpoint-name: self-cleavage
measurement: 0.122
//
variant-description: A47U G51A
endpoint-name: self-cleavage
measurement: 0.157
//
variant-description: C4A C38U
endpoint-name: self-cleavage
measurement: 0.135
//
variant-description: C16A U60A
endpoint-name: self-cleavage
measurement: 0.767
//
variant-description: G32C U70C
endpoint-name: self-cleavage
measurement: 0.234
//
variant-description: U5C A28U
endpoint-name: self-cleavage
measurement: 0.277
